Tested on: KRAS-mutant PDC tumor spheroid with HUVEC/MSC, viability
assay explanation: Anticancer human tumor 327498-153-R-J2-PDC patient-derived uterine carcinosarcoma cell line growth inhibition [KRAS2]; active means viability on the fitted dose curve at most 10% of control; inactive means the rest
condition context: second compound 1 µM; first compound 10 µM
Mark one answer only. Choices: active, inactive

compound	label value
COc1cc(Nc2ncc3c(n2)-c2ccc(Cl)cc2C(c2c(F)cccc2OC)=NC3)ccc1C(=O)O + C=CC(=O)N1CCN(c2nc(=O)n(-c3c(C)ccnc3C(C)C)c3nc(-c4c(O)cccc4F)c(F)cc23)C(C)C1	inactive
Cn1nccc1Nc1nccc(-c2cc3c(s2)C(C)(C)N(CCN2CCOCC2)C3=O)n1 + C=CC(=O)N1CCN(c2nc(=O)n(-c3c(C)ccnc3C(C)C)c3nc(-c4c(O)cccc4F)c(F)cc23)C(C)C1	inactive

*Q* // outcome(item) with item = CC(C)NCC(C(=O)N1CCN(c2ncnc3c2C(C)CC3O)CC1)c1ccc(Cl)cc1 (stereo not drawn) + C=CC(=O)N1CCN(c2nc(OCC3CCCN3C)nc3c2CCN(c2cccc4cccc(C)c24)C3)CC1CC#N
*A* active

*Q* // outcome(item) with item = CC1OCC2(CCN(c3cnc(Sc4ccnc(N)c4Cl)c(N)n3)CC2)C1N (stereo not drawn) + C=CC(=O)N1CCN(c2nc(OCC3CCCN3C)nc3c2CCN(c2cccc4cccc(C)c24)C3)CC1CC#N
*A* inactive

*Q* // outcome(item) with item = COc1cc(Nc2ncc3c(n2)-c2ccc(Cl)cc2C(c2c(F)cccc2OC)=NC3)ccc1C(=O)O + COc1cc2nc(C)nc(NC(C)c3cc(N)cc(C(F)(F)F)c3)c2cc1OC1CCOC1
*A* inactive

*Q* // outcome(item) with item = CC(C)NCC(C(=O)N1CCN(c2ncnc3c2C(C)CC3O)CC1)c1ccc(Cl)cc1 (stereo not drawn) + C=CC(=O)N1CCN(c2nc(=O)n(-c3c(C)ccnc3C(C)C)c3nc(-c4c(O)cccc4F)c(F)cc23)C(C)C1
*A* active

*Q* // outcome(item) with item = COC(=O)c1ccc2c(C(=Nc3ccc(N(C)C(=O)CN4CCN(C)CC4)cc3)c3ccccc3)c(O)[nH]c2c1 + C=CC(=O)N1CCN(c2nc(OCC3CCCN3C)nc3c2CCN(c2cccc4cccc(C)c24)C3)CC1CC#N
*A* active

*Q* // outcome(item) with item = CC1OCC2(CCN(c3cnc(Sc4ccnc(N)c4Cl)c(N)n3)CC2)C1N (stereo not drawn) + CNCc1ccccc1-c1csc(C(C)Nc2nc(C)nc3cc(OC)c(OC)cc23)c1
*A* inactive

*Q* // outcome(item) with item = Cn1nccc1Nc1nccc(-c2cc3c(s2)C(C)(C)N(CCN2CCOCC2)C3=O)n1 + COc1cc2nc(C)nc(NC(C)c3cc(N)cc(C(F)(F)F)c3)c2cc1OC1CCOC1
*A* inactive

*Q* // outcome(item) with item = COc1cc2nccc(Oc3ccc(NC(=O)C4(C(=O)Nc5ccc(F)cc5)CC4)cc3)c2cc1OC + C=CC(=O)N1CCN(c2nc(OCC3CCCN3C)nc3c2CCN(c2cccc4cccc(C)c24)C3)CC1CC#N
*A* active

*Q* // outcome(item) with item = O=C(c1cc(Cc2n[nH]c(=O)c3ccccc23)ccc1F)N1CCN(C(=O)C2CC2)CC1 + C=CC(=O)N1CCN(c2nc(OCC3CCCN3C)nc3c2CCN(c2cccc4cccc(C)c24)C3)CC1CC#N
*A* inactive

*Q* // outcome(item) with item = COC(=O)c1ccc2c(C(=Nc3ccc(N(C)C(=O)CN4CCN(C)CC4)cc3)c3ccccc3)c(O)[nH]c2c1 + COc1cc2nc(C)nc(NC(C)c3cc(N)cc(C(F)(F)F)c3)c2cc1OC1CCOC1
*A* inactive

*Q* // outcome(item) with item = CCNC(=O)CC1N=C(c2ccc(Cl)cc2)c2cc(OC)ccc2-n2c(C)nnc21 (stereo not drawn) + COc1cc2nc(C)nc(NC(C)c3cc(N)cc(C(F)(F)F)c3)c2cc1OC1CCOC1
*A* inactive

*Q* // outcome(item) with item = COc1cc2nccc(Oc3ccc(NC(=O)C4(C(=O)Nc5ccc(F)cc5)CC4)cc3)c2cc1OC + COc1cc2nc(C)nc(NC(C)c3cc(N)cc(C(F)(F)F)c3)c2cc1OC1CCOC1
*A* inactive

====

System: KRAS-mutant PDC tumor spheroid with HUVEC/MSC, viability
assay explanation: Anticancer human tumor 327498-153-R-J2-PDC cell line growth inhibition [KRAS2];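 further: spheroids exposed to agents for seven days before reading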;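 on viability, T/C: 100% = DMSO vehicle wells so lower means fewer viable cells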
condition context: second compound 3.16 µM; first compound 0.001 µM; stronger effect = lower value
assay metric: viability, T/C (%)
Answer format: numeric, % implied, no suffix.

Some compounds with known viability, T/C results, for comparison:
>>> df
                                   compound  numeric_value
0  CN(C)C/C=C/C(=O)Nc1cc2c(Nc3ccc(F)c(Cl)c3)ncnc2cc1O[C@H]1CCOC1 + CNCc1ccccc1-c1csc(C(C)Nc2nc(C)nc3cc(OC)c(OC)cc23)c1           51.1
1  Cn1ncnc1[C@H]1c2n[nH]c(=O)c3cc(F)cc(c23)N[C@@H]1c1ccc(F)cc1 + COc1cc2nc(C)nc(NC(C)c3cc(N)cc(C(F)(F)F)c3)c2cc1OC1CCOC1           68.8

Now consider the entry below.
Form: compound = Cn1ncnc1[C@H]1c2n[nH]c(=O)c3cc(F)cc(c23)N[C@@H]1c1ccc(F)cc1 + CNCc1ccccc1-c1csc(C(C)Nc2nc(C)nc3cc(OC)c(OC)cc23)c1 ; viability, T/C = 0.09

====

System: KRAS-mutant PDC tumor spheroid with HUVEC/MSC, viability
assay explanation: Anticancer human tumor 327498-153-R-J2-PDC cell line growth inhibition [KRAS2];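 further: spheroids exposed to agents for seven days before reading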;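 on viability, T/C: 100% = DMSO vehicle wells so lower means fewer viable cells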
condition context: second compound 0.316 µM; first compound 0.1 µM; stronger effect = lower value
assay metric: viability, T/C

compound	viability, T/C
Cn1nccc1Nc1nccc(-c2cc3c(s2)C(C)(C)N(CCN2CCOCC2)C3=O)n1 + C=CC(=O)N1CCN(c2nc(OCC3CCCN3C)nc3c2CCN(c2cccc4cccc(C)c24)C3)CC1CC#N	45%
CC1OCC2(CCN(c3cnc(Sc4ccnc(N)c4Cl)c(N)n3)CC2)C1N (stereo not given) + C=CC(=O)N1CCN(c2nc(=O)n(-c3c(C)ccnc3C(C)C)c3nc(-c4c(O)cccc4F)c(F)cc23)C(C)C1	33.4%
CC(C)NCC(C(=O)N1CCN(c2ncnc3c2C(C)CC3O)CC1)c1ccc(Cl)cc1 (stereo not given) + C=CC(=O)N1CCN(c2nc(OCC3CCCN3C)nc3c2CCN(c2cccc4cccc(C)c24)C3)CC1CC#N	29.8%
COC(=O)c1ccc2c(C(=Nc3ccc(N(C)C(=O)CN4CCN(C)CC4)cc3)c3ccccc3)c(O)[nH]c2c1 + CC1OCC2(CCN(c3cnc(Sc4ccnc(N)c4Cl)c(N)n3)CC2)C1N	50.7%

Now consider the entry below.
Reported viability, T/C (KRAS-mutant PDC tumor spheroid with HUVEC/MSC, viability) for entry COc1cc2nccc(Oc3ccc(NC(=O)C4(C(=O)Nc5ccc(F)cc5)CC4)cc3)c2cc1OC + C=CC(=O)N1CCN(c2nc(OCC3CCCN3C)nc3c2CCN(c2cccc4cccc(C)c24)C3)CC1CC#N is 48.5%

====

Listed next: entries and their corresponding IC50.
System: KRAS-mutant PDC tumor spheroid with HUVEC/MSC, viability
assay explanation: Anticancer human tumor 327498-153-R-J2-PDC cell line growth inhibition [KRAS2];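 further: spheroids exposed to agents for seven days before reading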
condition context: curve of first compound; second compound 0.316 µM
Answer format: numeric, nM implied, no suffix.

compound	IC50 / nM
O=C(c1cc(Cc2n[nH]c(=O)c3ccccc23)ccc1F)N1CCN(C(=O)C2CC2)CC1 + CNCc1ccccc1-c1csc(C(C)Nc2nc(C)nc3cc(OC)c(OC)cc23)c1	1810

Form: compound = CC1(C)CCC(CN2CCN(c3ccc(C(=O)NS(=O)(=O)c4ccc(NCC5CCOCC5)c([N+](=O)[O-])c4)c(Oc4cnc5[nH]ccc5c4)c3)CC2)=C(c2ccc(Cl)cc2)C1 + C=CC(=O)N1CCN(c2nc(=O)n(-c3c(C)ccnc3C(C)C)c3nc(-c4c(O)cccc4F)c(F)cc23)C(C)C1 ; IC50 = 1740

Form: compound = O=C(c1cc(Cc2n[nH]c(=O)c3ccccc23)ccc1F)N1CCN(C(=O)C2CC2)CC1 + C=CC(=O)N1CCN(c2nc(=O)n(-c3c(C)ccnc3C(C)C)c3nc(-c4c(O)cccc4F)c(F)cc23)C(C)C1 ; IC50 = 713

Form: compound = Cn1ncnc1[C@H]1c2n[nH]c(=O)c3cc(F)cc(c23)N[C@@H]1c1ccc(F)cc1 + C=CC(=O)N1CCN(c2nc(OCC3CCCN3C)nc3c2CCN(c2cccc4cccc(C)c24)C3)CC1CC#N ; IC50 = 1.97

====

Test system: KRAS-mutant PDC tumor spheroid with HUVEC/MSC, viability
assay explanation: Anticancer human tumor 327498-153-R-J2-PDC cell line growth inhibition [KRAS2];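 further: spheroids exposed to agents for seven days before reading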;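 on viability, T/C: 100% = DMSO vehicle wells so lower means fewer viable cells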
condition context: second compound 0.316 µM; first compound 0.1 µM; stronger effect = lower value
assay metric: viability, T/C (%)
Answer format: numeric, % implied, no suffix.

compound	unit of measurement	numeric value
CCN1CCN(Cc2ccc(Nc3ncc(F)c(-c4cc(F)c5nc(C)n(C(C)C)c5c4)n3)nc2)CC1 + C=CC(=O)N1CCN(c2nc(OCC3CCCN3C)nc3c2CCN(c2cccc4cccc(C)c24)C3)CC1CC#N	%	24
CC1(C)CCC(CN2CCN(c3ccc(C(=O)NS(=O)(=O)c4ccc(NCC5CCOCC5)c([N+](=O)[O-])c4)c(Oc4cnc5[nH]ccc5c4)c3)CC2)=C(c2ccc(Cl)cc2)C1 + CNCc1ccccc1-c1csc(C(C)Nc2nc(C)nc3cc(OC)c(OC)cc23)c1	%	79.5
CC1(C)CCC(CN2CCN(c3ccc(C(=O)NS(=O)(=O)c4ccc(NCC5CCOCC5)c([N+](=O)[O-])c4)c(Oc4cnc5[nH]ccc5c4)c3)CC2)=C(c2ccc(Cl)cc2)C1 + C=CC(=O)N1CCN(c2nc(=O)n(-c3c(C)ccnc3C(C)C)c3nc(-c4c(O)cccc4F)c(F)cc23)C(C)C1	%	54.5

Form: compound = Cn1nccc1Nc1nccc(-c2cc3c(s2)C(C)(C)N(CCN2CCOCC2)C3=O)n1 + CNCc1ccccc1-c1csc(C(C)Nc2nc(C)nc3cc(OC)c(OC)cc23)c1 ; viability, T/C = 62.6

Form: compound = CCN1CCN(Cc2ccc(Nc3ncc(F)c(-c4cc(F)c5nc(C)n(C(C)C)c5c4)n3)nc2)CC1 + CNCc1ccccc1-c1csc(C(C)Nc2nc(C)nc3cc(OC)c(OC)cc23)c1 ; viability, T/C = 35.5
